- System: endogenous TFE3
- assay.notes: TFE3 nuclear translocation, immunocytochemistry high-content imaging
- Type: cell-based
- condition.parameters: PKIS2 primary screening
Quick reference for TFE3 % among some compounds
assay.metric: TFE3 % (%)

> print(dat)
                                   compound  assay.metric  quantitative.readout
1  CSc1ccc(-c2nc3n(c2-c2ccncc2)CCC3)cc1 [UNC10225486A]        TFE3 %                 13.99
2  O=c1cc(N2CCOCC2)nc2n(Cc3cccc(Cl)c3)ccn12 [UNC10225131A]        TFE3 %                 11.28
3  Cc1cc(-c2ccc3c(c2)CC[C@@H](N[C@@H](C)c2ccccc2)C3)cnc1N        TFE3 %                 41.99
4  Cc1c(O)cccc1Nc1ccnc2ccc(C(F)(F)F)cc12.Cl [UNC10225099A]        TFE3 %                  5.56
5  NC(=O)c1sc(-n2cnc3ccccc32)cc1OCc1ccccc1F [UNC10225260A]        TFE3 %                 15.10
6  COc1ccc(Nc2nccc(N3CCC(NC(=O)Nc4ccc5c(c4)OCO5)C3)n2)cc1 (centres unmarked)        TFE3 %                 19.51
7  Cc1n[nH]c2ccc(-c3cc(OC[C@@H](N)Cc4ccccc4)cnc3-c3ccoc3)cc12.O=C(O)C(F)(F)F.O=C(O)C(F)(F)F [UNC10225447A]        TFE3 %                 18.99
8  Cc1ccc(F)c(C(=O)Nc2cccc(-c3nn4ccccc4c3-c3ccnc(Nc4cccc(F)c4)n3)c2)c1F [UNC10225076A]        TFE3 %                  6.05
